Target: T1, purified human CD117 ectodomain (R&D Systems #332-SR) (human, UniProt P10721 26-524)
T1 construct: extracellular domain; Bought protein; also called c-kit; purified recombinant human CD117 ectodomain
T1 sequence (P10721 26-524): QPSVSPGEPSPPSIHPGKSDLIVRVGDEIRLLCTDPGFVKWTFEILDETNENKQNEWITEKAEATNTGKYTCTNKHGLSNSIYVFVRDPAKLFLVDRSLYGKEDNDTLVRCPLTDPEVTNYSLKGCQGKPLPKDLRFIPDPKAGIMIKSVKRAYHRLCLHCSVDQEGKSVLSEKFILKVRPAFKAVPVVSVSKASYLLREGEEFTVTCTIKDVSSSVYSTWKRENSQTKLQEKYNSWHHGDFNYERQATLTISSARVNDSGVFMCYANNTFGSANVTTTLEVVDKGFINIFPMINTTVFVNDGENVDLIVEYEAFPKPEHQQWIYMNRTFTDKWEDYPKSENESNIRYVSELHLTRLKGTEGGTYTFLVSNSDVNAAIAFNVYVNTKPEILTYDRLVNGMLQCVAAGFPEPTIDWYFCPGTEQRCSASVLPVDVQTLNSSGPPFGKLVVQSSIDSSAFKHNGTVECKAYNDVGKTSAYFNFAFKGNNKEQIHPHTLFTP
Test: BLI; kdis compared to HC-1/LC-1 (Ab1)
measure: Fold improvement (off-rate)
Write down the value, and be sure its unit follows.

# count of solved cases: 4
>  <binder>
HC-246/LC-246 (Ab246) (antibody, V domains shown, IgG on anti-human Fc sensors; hIgG1/hKappa) VH: QVQLVQSGAAVKKPGESLKISCKGSGYRFTTYWIGWVRQMPGKGLEWMGIIYPGDSDTRYSPSFQGQVTISAGKSISTAYLQWSSLKASDTAMYYCARHGRGYNGYEGAFDIWGQGTMVTVSS VL: DIQMTQSPSSLSASVGDRVTITCRASQGIGSALAWYQQKPGKAPKLLIYDASTLESGVPSRFSGSGSGTDFTLTISSLQPEDFATYYCQQFNGYPLTFGQGTRLEIK

>  <Fold improvement (off-rate)>
8.9 fold

$$$$
>  <binder>
HC-245/LC-245 (Ab245) (antibody, V domains shown, IgG on anti-human Fc sensors; hIgG1/hKappa) VH: EVQLVQSGAEVKKPGESLKISCKGSGYRFTTSWIGWVRQMPGKGLEWMGIIYPGDSDTRYSPSFQGQVTISADKSISTAYLQWSSLKASDTAMYYCARHGLGYNGYEGAFDIWGQGTLVTVSS VL: DIQMTQSPSSLSASVGDRVTITCRASQGIGSALAWYQQKPGKAPKLLIYDASTLESGVPSRFSGSGSGTDFTLTISSLQPEDFATYYCQQFNGYPLTFGQGTRLEIK

>  <Fold improvement (off-rate)>
7.9 fold

$$$$
>  <binder>
HC-248/LC-248 (Ab248) (antibody, V domains shown, IgG on anti-human Fc sensors; hIgG1/hKappa) VH: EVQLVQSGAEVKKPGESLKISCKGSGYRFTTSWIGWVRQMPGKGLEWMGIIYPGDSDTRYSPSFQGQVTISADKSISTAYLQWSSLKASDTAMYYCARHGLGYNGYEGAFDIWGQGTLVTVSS VL: DIQMTQSPSSLSASVGDRVTITCRASQGIGSALAWYQQKPGKAPKLLIYDASTLESGVPSRFSGSGSGTDFTLTISSLQPEDFATYYCQQLNGYPLTFGQGTRLEIK

>  <Fold improvement (off-rate)>
7.1 fold

$$$$
>  <binder>
HC-249/LC-249 (Ab249) (antibody, V domains shown, IgG on anti-human Fc sensors; hIgG1/hKappa) VH: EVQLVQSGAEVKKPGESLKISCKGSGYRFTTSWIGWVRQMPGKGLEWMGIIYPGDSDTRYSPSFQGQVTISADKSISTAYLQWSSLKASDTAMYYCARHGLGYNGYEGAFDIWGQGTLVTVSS VL: DIQMTQSPSSLSASVGDRVTITCRASQGIGSALAWYQQKPGKAPKLLIYDASNLETGVPSRFSGSGSGTDFTLTISSLQPEDFATYYCQQLNGYPLTFGQGTRLEIK

>  <Fold improvement (off-rate)>
12 fold

$$$$

Continue with the binder presented below.
QUERY: What value of Fold improvement (off-rate) has been reported for the following binder? HC-247/LC-247 (Ab247) (antibody, V domains shown, IgG on anti-human Fc sensors; hIgG1/hKappa) VH: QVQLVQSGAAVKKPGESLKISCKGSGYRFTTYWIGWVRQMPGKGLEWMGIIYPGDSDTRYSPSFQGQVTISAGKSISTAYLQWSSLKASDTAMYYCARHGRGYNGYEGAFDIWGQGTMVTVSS VL: DIQMTQSPSSLSASVGDRVTITCRASRGISDYLAWYQQKPGKAPKLLIYDASNLETGVPSRFSGSGSGTDFTLTISSLQPEDFATYYCQQANSFPITFGQGTRLEIK
RESULT: 3.6 fold
